The origin of these recorded values is patent US10005731B2.

Below: a set of entries, each annotated with reported IC50.
Molecular target: RORγ (Homo sapiens)
Sequence (P51449 1-497 isoform P51449-2): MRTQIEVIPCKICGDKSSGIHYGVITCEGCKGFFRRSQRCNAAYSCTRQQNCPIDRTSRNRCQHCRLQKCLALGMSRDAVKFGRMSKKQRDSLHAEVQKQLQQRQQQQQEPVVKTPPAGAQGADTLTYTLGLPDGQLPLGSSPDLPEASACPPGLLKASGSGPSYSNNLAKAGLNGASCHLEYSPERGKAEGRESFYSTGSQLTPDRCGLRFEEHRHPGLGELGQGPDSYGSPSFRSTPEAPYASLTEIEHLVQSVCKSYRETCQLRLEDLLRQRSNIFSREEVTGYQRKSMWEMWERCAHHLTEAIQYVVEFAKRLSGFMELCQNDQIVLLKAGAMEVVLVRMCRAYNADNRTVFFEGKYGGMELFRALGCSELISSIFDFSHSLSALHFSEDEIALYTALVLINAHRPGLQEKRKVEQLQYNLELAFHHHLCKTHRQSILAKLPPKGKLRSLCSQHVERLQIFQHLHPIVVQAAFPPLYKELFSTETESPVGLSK
Test: Jurkat cell luciferase assay (human IL17 promoter reporter, RORγt overexpression)
Conditions: mean pIC50; detection limit of the assay 5
Counter-ions that a name gives are not always drawn.

[
  {
    "molecule": "Cc1cnc(C(=O)Nc2cc(F)cc(CN3CCN(C(=O)C4CCCC4)[C@@H](C)C3)c2C)cn1",
    "IC50": "> 10000 nM"
  },
  {
    "molecule": "Cc1c(CN2CCN(C(=O)C3CCCC3)[C@@H](C)C2)cc(F)cc1NC(=O)c1cccc(C#N)c1",
    "IC50": "~5.01 nM"
  },
  {
    "molecule": "Cc1c(CN2CCN(C(=O)C3CCCC3)[C@@H](C)C2)cc(Cl)cc1NC(=O)c1cccc(C#N)c1 [Example 193, trifluoroacetic acid salt]",
    "IC50": "~2.51 nM"
  }
]
